# Tested on: MDBK
# Test name: Cytotoxicity assay, MDBK cell line
# Assay context: read-out: CC50(μM) MDBK; Table 4; 24-hour incubation
# Method: We next examined the cytotoxicity profile of the pronucleotide derivatives in different cell lines such as MDBK, Vero, and HFF. Standard MTF assays were performed in 96-well plates using the Promega CellTiter96 Non-radioactive Cell Proliferation Assay Kit in conjunction with a 96-well Plate Reader (ThermoMax, Molecular devices), and using MDBK, Vero, and TIFF cell lines (obtained from ATCC). […]
Metric: CC50

GET /value?item= COC1C(OP(=O)(OCC2OC(n3cnc4c(N)ncnc43)CC2O)SCCCCOC(C)=O)C(CO)OC1n1ccc(=O)[nH]c1=O (mixture of isomers) &field=CC50 returns > 1000 µM

---

# Tested on: Vero
# Test name: Cytotoxicity assay, Vero cell line
Metric: CC50

GET /value?item= COC1C(OP(=O)(OCC2OC(n3cnc4c(N)ncnc43)CC2O)SCCCCOC(=O)c2ccccc2)C(CO)OC1n1ccc(=O)[nH]c1=O (mixture of isomers) [Compound 6f] &field=CC50 returns > 1000 µM

GET /value?item= COC1C(OP(=O)(OCC2OC(n3cnc4c(N)ncnc43)CC2O)SCCCCOC(=O)c2cccnc2)C(CO)OC1n1ccc(=O)[nH]c1=O (mixture of isomers) [Compound 6g] &field=CC50 returns > 1000 µM

GET /value?item= COC1C(OP(=O)(OCC2OC(n3cnc4c(N)ncnc43)CC2O)SCc2ccc(OC(=O)C(C)C)cc2)C(CO)OC1n1ccc(=O)[nH]c1=O (mixture of isomers) [Compound 6b] &field=CC50 returns > 1000 µM

---

# System: Vero
# Test name: Cytotoxicity assay, Vero cell line
Please go through the items and note down their CC50.

GET /value?item= COC1C(OP(=O)(OCC2OC(n3cnc4c(N)ncnc43)CC2O)SCc2ccc(NC(C)=O)cc2)C(CO)OC1n1ccc(=O)[nH]c1=O (mixture of isomers) [Compound 6d] &field=CC50 returns > 1000 µM

GET /value?item= COC1C(OP(=O)(OCC2OC(n3cnc4c(N)ncnc43)CC2O)SCCCCNC(=O)c2ccccc2)C(CO)OC1n1ccc(=O)[nH]c1=O (mixture of isomers) [Compound 6i] &field=CC50 returns > 1000 µM

GET /value?item= COC1C(OP(=O)(OCC2OC(n3cnc4c(N)ncnc43)CC2O)SCCCCNC(=O)c2cccnc2)C(CO)OC1n1ccc(=O)[nH]c1=O (mixture of isomers) [Compound 6j] &field=CC50 returns > 1000 µM
